biological target: Gal3S(b1-4)GlcNAc; test: glycan array binding signal (z-score within array); higher = stronger binding; conditions: glycan notation: IUPAC condensed, linker removed
Only a selection was taken, and the strongest signals are over-represented in it overall.
measurement.name: glycan array binding signal (z-score)
// no unit string in output, number only

| binder | readout.number |
| --- | --- |
| Epa1 (Candida glabrata) (protein) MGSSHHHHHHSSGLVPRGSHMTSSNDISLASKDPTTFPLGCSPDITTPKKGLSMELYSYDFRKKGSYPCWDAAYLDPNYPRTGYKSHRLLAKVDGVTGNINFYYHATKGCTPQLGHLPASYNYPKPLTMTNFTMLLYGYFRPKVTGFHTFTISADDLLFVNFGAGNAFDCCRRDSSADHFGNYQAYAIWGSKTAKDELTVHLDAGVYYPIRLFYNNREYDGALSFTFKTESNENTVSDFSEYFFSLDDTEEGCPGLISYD | -0.442 |

Incoming: Find the measured glycan array binding signal (z-score) of Epa15 (Candida glabrata) (protein) MGSSHHHHHHSSGLVPRGSHMASDPTTFPLGCSPEFTKTKKGLSMELYRYDYLPPGSYPCWDSAYLNPSYPRTGYKAKKLIATVDGVSGDINFKFNPKFGCKAIPDYLPSNFNYHEPITITNFTMILYGYFMPKTTAFHTFYVTADDLLFMNFGAGNAFDCCRREETADKFGNYAAYSVWGKKSLKNELTVYLHTGVYYPIRLFYNNRDYIAQLDIRFKTEHSNAIITNFTDYFYSVDDSSLGCPGLI and report it.
Outgoing: -0.488
